test system: femoral artery; assay: Vasodilator activity, femoral artery (technique of perfused paw); assay type: in vivo; parameters: key: O: no action; +: slight activity; ++: effect equal to half the effect of papaverine; +++: effect equal to that of papaverine; ++++: effect higher than that of papaverine; details: intra-arterial, 30 mg/kg, anaesthetized dog, vs papaverine at same dose
quantity: VASODILATOR ACTIVITY

See these solved cases before continuing.
Q: What measured VASODILATOR ACTIVITY goes with CC(NCCc1ccccc1)C(O)c1ccc2c(c1)CCS2 (centres unmarked) [No 6] ?
Result: +++

Q: What measured VASODILATOR ACTIVITY goes with CC(CCCc1ccccc1)NC(C)C(O)c1ccc2c(c1)CCC2 (centres unmarked) [No 173] ?
Result: ++

Q: What measured VASODILATOR ACTIVITY goes with CC1CSc2ccc(C(O)C(C)NCCCCc3ccccc3)cc21 (centres unmarked) [No 109] ?
Result: +++

Q: What measured VASODILATOR ACTIVITY goes with CCCCCCCCNC(C)C(O)c1ccc2c(c1)SCCS2 (centres unmarked) [No 101] ?
Result: +++

Next:
Q: What measured VASODILATOR ACTIVITY goes with CC(C(O)c1ccc2c(c1)CCC2)N1CCC(c2ccccc2)CC1 (centres unmarked) [No 174] ?
Result: +++

----------
Could you please report measured LD50 for the items listed next?
test: Acute toxicity, oral, LD50 (Litchfield and Wilcoxon); conditions: mouse, in vivo, fasted male mice, confidence limits p=95% in brackets

Q: What measured LD50 goes with C=CCCCCCCCCCNC(C)C(O)c1ccc2c(c1)CCS2 (stereo not drawn) [No 92] ?
Result: > 4000 mg/kg

Q: What measured LD50 goes with CC(NCCCc1ccccc1)C(O)c1ccc2c(c1)CCCS2 (stereo not drawn) [No 17] ?
Result: > 4000 mg/kg

Q: What measured LD50 goes with CCCCCCCCNC(C)C(OC(=O)CCCCCCC)c1ccc2c(c1)CCCS2 (stereo not drawn) [No 136] ?
Result: > 4000 mg/kg

Q: What measured LD50 goes with CC1Cc2cc(C(O)C(C)NCCOCc3ccccc3)ccc2S1 (stereo not drawn) [No 120] ?
Result: ~1450 mg/kg

Q: What measured LD50 goes with CC1CSc2ccc(C(O)C(C)NCCCCc3ccccc3)cc21 (stereo not drawn) [No 109] ?
Result: ~2750 mg/kg

Q: What measured LD50 goes with CCC(=O)c1ccc(OCCNC(C)C(O)c2ccc3c(c2)CCS3)cc1 (stereo not drawn) [No 108] ?
Result: > 4000 mg/kg

Q: What measured LD50 goes with CCCCCCCCNC(C)C(OC(=O)CC)c1ccc2c(c1)CCCS2 (stereo not drawn) [No 131] ?
Result: > 4000 mg/kg

Q: What measured LD50 goes with CC1CSc2ccc(C(O)C(C)NCCCCc3ccccc3)cc2C1 (stereo not drawn) [No 45] ?
Result: > 4000 mg/kg

Q: What measured LD50 goes with CC(NCCCc1ccccc1)C(O)c1ccc2c(c1)CCS2 (stereo not drawn) [No 57] ?
Result: > 2000 mg/kg

Q: What measured LD50 goes with CC1Cc2cc(C(O)C(C)NCCOc3ccc(Cl)cc3)ccc2S1 (stereo not drawn) [No 58] ?
Result: > 4000 mg/kg

Q: What measured LD50 goes with CCCCCCCCNC(CC)C(O)c1ccc2c(c1)CCCS2 (stereo not drawn) [No 128] ?
Result: > 4000 mg/kg

Q: What measured LD50 goes with CC(NCCCCc1ccccc1)C(O)c1ccc2c(c1)SCCS2 (stereo not drawn) [No 100] ?
Result: > 2000 mg/kg
